So I've got a bunch of binders here, and I need their Bottom (best-fit) values.
Biological target: T1, human TIGIT over-expressed on cells (human, UniProt Q495A1 22-244)
T1 construct: also called CHO-K1/human TIGIT cells; CHO cells expressing human TIGIT
T1 sequence: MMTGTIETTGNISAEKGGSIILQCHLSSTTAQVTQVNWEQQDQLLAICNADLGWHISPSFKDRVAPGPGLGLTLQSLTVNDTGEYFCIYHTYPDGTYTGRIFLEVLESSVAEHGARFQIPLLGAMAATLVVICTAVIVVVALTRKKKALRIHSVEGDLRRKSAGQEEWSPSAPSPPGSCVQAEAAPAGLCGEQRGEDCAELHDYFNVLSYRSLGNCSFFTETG
Test: FACS, CHO-K1 cells over-expressing human TIGIT

Input line: Which Bottom (best-fit) is listed for 128E3G7F5 (antibody, V domains shown, Mouse monoclonal antibody; also called mouse anti-human TIGIT monoclonal antibody 128E3G7F5) VH: EVLLQQSGPELVKTGASVKISCKASGYSFTAYYMHWVKQSHGKSLEWIGYISCYNGATTYNQKFKGKATFTVDTSSTTAYMQFNSLTSEDSAVYYCARRVYYGYDEALVYWGQGTSVTVSS VL: DIVMTQSPSSLSVSAGEKVTMTCKSSQSLLNSGNQKNYLAWYQQKPGQPPKLLIYGASTRGSGVPDRFTGSGSGTDFTLTISSVQAEDLAVYYCQNDHSYPYTFGGGTKLEIK ?
Output line: 16.2

Input line: Which Bottom (best-fit) is listed for 70A11A8E6 (antibody, V domains shown, Mouse monoclonal antibody; also called mouse anti-human TIGIT monoclonal antibody 70A11A8E6) VH: DVQLQESGPGLVKPSQSLSLTCTVTGYSITSDYAWNWIRQFPGNKLEWMGYIIYSGSTSYNPSLKSRISITRDTSKNQFFLQLNSVTTEDTATYYCARGWFRRPDYWGQGTTLTVSS VL: DIVMTQSHEFMSTSLGDRVSITCKASQDVSTAVAWHQQKPGQSPKQLIYSASYRYTGVPDRFTGSGSGTDFTFTISNMQAEDLAVYYCQQHYSVPLTFGAGTKLELK ?
Output line: 11
